biological target: 5-hydroxytryptamine receptor 1A (Homo sapiens, UniProt P08908); assay: GPCRScan assay: inhibition of 5-HT1A; parameters: radioligand conc. used [nm] 0.5 – 1.0, parental cells stable CHO; conditions: read-out: Ki
Sequence (P08908 whole entry): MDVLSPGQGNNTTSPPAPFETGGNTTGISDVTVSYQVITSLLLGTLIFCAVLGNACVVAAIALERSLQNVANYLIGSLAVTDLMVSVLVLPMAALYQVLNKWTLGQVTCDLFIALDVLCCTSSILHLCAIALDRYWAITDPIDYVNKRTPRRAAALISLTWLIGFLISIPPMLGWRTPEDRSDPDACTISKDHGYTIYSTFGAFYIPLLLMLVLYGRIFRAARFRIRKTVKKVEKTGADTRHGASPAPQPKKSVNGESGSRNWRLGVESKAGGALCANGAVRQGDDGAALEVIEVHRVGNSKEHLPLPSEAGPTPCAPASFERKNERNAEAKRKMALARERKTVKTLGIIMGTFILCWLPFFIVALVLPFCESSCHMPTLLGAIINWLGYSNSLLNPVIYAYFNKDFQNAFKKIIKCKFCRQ
recordedMetric: pKi
Give bare numbers, as −log10 of the molar value.

Input line: Quick one: pKi for Nc1nc(NCc2ccccc2)nc(-c2cccc(CO)c2)n1 [ZINC32547799] ?
Output line: 6.07
